Assign log10 koff to each entry below.
# target_or_system: human IgG1 antibody (#I5154; Sigma-Aldrich) (human)
# procedure_text: SPR, single cycle kinetics, IgG1 chip
Reminder: these figures are log10 of reported koff, in s⁻¹ before transformation.

Sample answers from the record:
R2-16 rabbit-derived single-chain antibody-His (scFv) scFv: QSVKESGGRLVTPGTPLTLTCTVSGFSLSSYAMGWVRQAPGKGLEYIGIISSSGSTYYASWAKGRFTISKTSTTVDLKITSPTTEDTATYFCARYSGDNGGALNLWGPGTLVTVTSGGGGSGGGGSGGGGSELDLTQTAASVSEPVGGTVTISCQSSQHIRSYLAWYQQKPGQPPKLLISAASTLASGVSSRFKGSGSGTEFTLTISDLECADAATYYCQRYYDIRNYGNGFGGGTEVEITGSHHHHHH ... -3.49
R3-75 rabbit-derived single-chain antibody-His (scFv) scFv: QSVKESGGRLVTPGTPLTLTCTVSGIDLSSNAMSWVRQAPGEGLEWIGTISTVGKTYFASWAKGRFTISKTSTTVDLRITSPTTEDTATYFCATRYDSYGYAYNYWFGTLWGPGTLVTVTSGGGGSGGGGSGGGGSELDLTQTPPSVSGAVGGTVTIKCQASENINSELAWYQQKPGQRPKLLIYDASKLASGVPSRFSGSGSGTEYTLTISGMQCDDAATYYCQSTYYDGNYVYAFGGGTEVDVTRSHHHHHH ... -4.43
R1-27 rabbit-derived single-chain antibody-His (scFv) scFv: QQQLMESGGGLVTPGTPLTLTCTVSGIDLRRYAMGWVRQAPGKGLQWIGIIASGNTDYASWAKGRFTISATSTTVDLKITSSTTEDTATYFCARYSGDNGGTLNLWGPGTLATVTTGGGGSGGGGSGGGGSELVMTQTAASVSEPVGGTVTIKCQASEHIRNYLAWYQQKPGQPPKLLIYTTSNLASGVPSRFSGSGSGTEYTLTISDLECADAATYYCQNYYDISTYGNTFGGGTEVDVKGSHHHHHH ... -3.40
R3-26 rabbit-derived single-chain antibody-His (scFv) scFv: QEQLVESGGGLVKPGGTLTLTCTVSGIDLSSYAMSWVRQVPGKGLEWIGIIGSGGGTAYANWAKGRFTISKTSSTTVDLKMTSLTTEDTATYFCATDYGIYGYAYGHLWGPGTLVTVTSGGGGSGGGGSGGGGSELVMTQTASPVSAAVGGTVTIKCQASQSISTALAWYQQRPGQPPKLLIYDASTLASGVSSRFKGSGSGTEFTLTISDLECADAATYYCQTYFGSDTDNAFGEGTEVEITGSHHHHHH ... -4.37
R3-23 rabbit-derived single-chain antibody-His (scFv) scFv: QSVKESEGRLVTPGTPLTLTCTVSGFSLSRYAVSWVRQAPGKGLEWIGIIGSGGSTSYATWARGRFTISKTSTTVDLKITSPTTEDTVTYFCGSYYDSHGYAYVSLWGPGTLVTVTSGGGGSGGGGSGGGGSELVLTQTPSPVSGAVGGTVTINCQASQSISTALAWYQQKPGQPPKLLIYSASTLASGVSSRFKGSGSGTGFTLTISDLECADAATYYCQSYYGSSSDNAFGGGTEVVIKRSHHHHHH ... -3.89

Data request: Using the record for R1-7 rabbit-derived single-chain antibody-His (scFv) scFv: QSLEESGGRLVTPGTPLTLTCTVSGIDLRRYAMGWVRQAPGKGLQWIGIIASGNTDYASWAKGRFTISATSTTVDLKITSPTTEDTATYFCARYSGDNGGTLNLWGPGTLVTVTSGGGGSGGGGSGGGGSELVMTQTAASVSEPVGGTVTIKCQASQSISSYLAWYQQKPGQPPKLLIYAASNLASGVSSRFKGSGSGTEFTLTISDLECADAATYYCQSYYSISSYGNTFGGGTEVEITGSHHHHHH , report its log10 koff.
Data returned: -2.77
